# MEASURED_TARGET: KRAS (G12D) (Homo sapiens, UniProt P01116, G12D)
# Construct: in-cell western with KRAS G12D antibody after 24 h
# Sequence (P01116 1-188 isoform P01116-2 G12D): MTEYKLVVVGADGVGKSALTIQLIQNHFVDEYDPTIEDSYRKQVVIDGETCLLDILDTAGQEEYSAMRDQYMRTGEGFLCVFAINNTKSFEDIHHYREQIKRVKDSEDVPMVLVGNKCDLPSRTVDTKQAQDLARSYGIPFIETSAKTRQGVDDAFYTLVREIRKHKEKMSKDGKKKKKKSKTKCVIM
# ASSAY_NAME: KRAS (G12D) cellular degradation assay in AsPC-1 cells
# Format: cell-based
# TEST_PARAMETERS: 24 hours, antibody fluorescence (Odyssey CLX), DC50 half-maximal degradation concentration
READOUT_LABEL: DC50

Record request: DC50 value, item CCn1nccc1-c1ccc([C@@H](NC(=O)[C@@H]2C[C@@H](O)CN2C(=O)[C@H](C(C)C)n2cc(-c3ccc(COc4c(-c5c(C)c(F)cc6[nH]ncc56)c(C5CCC5)cc5c(N6C[C@@H]7C[C@H]6CN7)nc(O[C@H]6C[C@H](OC)C6)nc45)cc3)nn2)[C@H](C)O)cc1 [Example 136]
< 10 nM

// repeat for Cc1ncsc1-c1ccc([C@@H](NC(=O)[C@@H]2C[C@@H](O)CN2C(=O)[C@H](C(C)C)n2cc(-c3ccc(COc4c(-c5c(C)c(F)cc6[nH]ncc56)c(C5CC5)cc5c(N6C[C@@H]7C[C@H]6CN7)nc(OC6CCOCC6)nc45)cc3)nn2)[C@@H](O)C2CC2)cc1 [Example 138] and report
< 10 nM

// repeat for CCn1nccc1-c1ccc([C@H](CO)NC(=O)[C@@H]2C[C@@H](O)CN2C(=O)[C@H](C(C)C)n2cc(-c3ccc(COc4c(-c5c(C)c(F)cc6[nH]ncc56)c(C5CC5)cc5c(N6CCCC(C#N)CC6)nc(OC[C@H](C)OC)nc45)cc3)nn2)cc1 (stereo partly shown) [Example 182] and report
10 to 100 nM

// repeat for CO[C@@H](C)COc1nc(N2C[C@@H]3C[C@H]2CN3)c2cc(C3CC3)c(-c3c(C)c(F)cc4[nH]ncc34)c(OCc3ccc(-c4cn([C@H](C(=O)N5C[C@H](O)C[C@H]5C(=O)N[C@H](C#Cc5cccc6c5cnn6C)CO)C(C)C)nn4)cc3)c2n1 [Example 134] and report
10 to 100 nM

---

# MEASURED_TARGET: KRAS (G12D) (Homo sapiens, UniProt P01116, G12D)
# Construct: in-cell western with KRAS G12D antibody after 24 h
# ASSAY_NAME: KRAS (G12D) cellular degradation assay in AsPC-1 cells
# Format: cell-based
# TEST_PARAMETERS: 24 hours, antibody fluorescence (Odyssey CLX), DC50 half-maximal degradation concentration
So I've got a bunch of compounds here, and I need their DC50 values.

Record request: DC50 value, item CCn1nccc1-c1ccc(CNC(=O)[C@@H]2C[C@@H](O)CN2C(=O)[C@H](C(C)C)n2cc(-c3ccc(COc4c(-c5c(C)c(F)cc6[nH]ncc56)c(C5CC5)cc5c(N6C[C@H]7C[C@@H]6CN7)nc(OC[C@H](C)OC)nc45)cc3)nn2)cc1 (single isomer, unassigned) [Example 7B]
> 1000 nM

// repeat for CO[C@@H](C)COc1nc(N2C[C@@H]3C[C@H]2CN3)c2cc(C3CC3)c(-c3c(C)c(F)cc4[nH]ncc34)c(OCc3ccc(-c4cn([C@H](C(=O)N5C[C@H](O)C[C@H]5C(=O)N[C@H](C#Cc5cncc6nn(C)cc56)CO)C(C)C)nn4)cc3)c2n1 [Example 185] and report
10 to 100 nM

// repeat for Cc1ncsc1-c1ccc([C@H](CO)NC(=O)[C@@H]2C[C@@H](O)CN2C(=O)[C@H](C(C)C)n2cc(-c3ccc(COc4c(-c5c(C)c(F)c(F)c6[nH]ncc56)c(C5CCC5)cc5c(N6C[C@@H]7C[C@H]6CN7)nc(OC6CCOCC6)nc45)cc3)nn2)cc1 [Example 120] and report
10 to 100 nM
